- assayed-system: Serine/threonine-protein kinase pim-2 (Homo sapiens, UniProt Q9P1W9)
- Sequence (Q9P1W9 whole entry, looked up): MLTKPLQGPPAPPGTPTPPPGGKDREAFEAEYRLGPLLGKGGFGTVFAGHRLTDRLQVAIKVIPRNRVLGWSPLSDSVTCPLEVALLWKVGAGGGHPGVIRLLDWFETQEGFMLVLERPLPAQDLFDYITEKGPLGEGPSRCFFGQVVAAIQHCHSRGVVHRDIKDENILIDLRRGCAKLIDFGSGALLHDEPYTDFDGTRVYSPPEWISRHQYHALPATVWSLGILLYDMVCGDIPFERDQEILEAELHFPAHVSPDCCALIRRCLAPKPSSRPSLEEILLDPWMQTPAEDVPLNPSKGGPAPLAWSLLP
Readings of ΔTm for the listed compounds
experimental-readout: ΔTm (°C)

>>> readout_value("CCOc1ccc(/C=C2/SC(=O)N(CCN)C2=O)cc1")
-0.1
>>> readout_value("N#C/C(=C\\c1ccc(O)c(O)c1)C(=O)NCc1ccccc1")
1.9
>>> readout_value("CC[C@H](CO)Nc1nc(NCc2ccccc2)c2ncn(C(C)C)c2n1")
0.3
>>> readout_value("CN(C)S(=O)(=O)c1ccc2c(c1)/C(=C/c1cc3c([nH]1)CCCC3)C(=O)N2")
0.4
>>> readout_value("c1ccc(-c2n[nH]c3c2oc2ccccc23)cc1")
1.1
>>> readout_value("COc1cc(/C=C/C(=O)CC(=O)/C=C/c2ccc(O)c(OC)c2)ccc1O")
2.9
>>> readout_value("NCCNS(=O)(=O)c1cccc2c(Cl)cccc12")
1.7
>>> readout_value("C=CNC#N")
0.3
>>> readout_value("Nc1nccc(-c2c(-c3ccc(F)cc3)ncn2C2CCNCC2)n1")
0.2
>>> readout_value("CC(C)c1nn(-c2c(Cl)cccc2Cl)c2nc(Cc3ccc(OCCO)cc3)[nH]c(=O)c12")
-0.1
>>> readout_value("COc1ccc(Cl)cc1NC(=O)Nc1cc(C)nc2ccccc12")
1
>>> readout_value("N#C/C(=C1/Nc2ccccc2S1)c1ccnc(NCCc2cccnc2)n1")
7.4

----------
- assayed-system: Serine/threonine-protein kinase PLK4 (Homo sapiens) (UniProt O00444)
- Sequence (whole entry): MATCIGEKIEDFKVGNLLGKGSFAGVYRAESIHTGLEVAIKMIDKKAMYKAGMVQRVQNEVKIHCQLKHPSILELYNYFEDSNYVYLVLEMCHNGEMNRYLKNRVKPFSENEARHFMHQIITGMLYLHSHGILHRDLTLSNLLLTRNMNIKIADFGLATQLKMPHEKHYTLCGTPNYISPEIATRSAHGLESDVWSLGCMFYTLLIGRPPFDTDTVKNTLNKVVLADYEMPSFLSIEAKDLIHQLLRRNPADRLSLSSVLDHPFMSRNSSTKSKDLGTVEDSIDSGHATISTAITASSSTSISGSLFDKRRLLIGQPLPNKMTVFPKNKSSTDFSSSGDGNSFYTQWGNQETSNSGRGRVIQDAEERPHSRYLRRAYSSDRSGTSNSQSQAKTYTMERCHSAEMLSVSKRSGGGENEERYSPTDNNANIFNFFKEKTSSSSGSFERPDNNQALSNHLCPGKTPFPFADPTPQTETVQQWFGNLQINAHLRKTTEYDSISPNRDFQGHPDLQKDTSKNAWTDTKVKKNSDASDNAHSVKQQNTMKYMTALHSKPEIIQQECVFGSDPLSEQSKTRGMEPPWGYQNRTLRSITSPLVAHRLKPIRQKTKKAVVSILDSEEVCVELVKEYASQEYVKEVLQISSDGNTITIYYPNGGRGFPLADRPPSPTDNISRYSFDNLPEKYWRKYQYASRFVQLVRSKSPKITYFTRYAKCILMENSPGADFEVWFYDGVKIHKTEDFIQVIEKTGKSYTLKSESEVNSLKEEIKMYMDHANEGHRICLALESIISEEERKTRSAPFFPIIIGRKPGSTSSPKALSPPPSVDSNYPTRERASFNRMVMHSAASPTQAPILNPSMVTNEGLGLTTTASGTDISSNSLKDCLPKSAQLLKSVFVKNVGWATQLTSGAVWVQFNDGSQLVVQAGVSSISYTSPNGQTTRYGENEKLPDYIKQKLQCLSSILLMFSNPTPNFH
Decide using ΔTm alone. Strictly below 0 °C: met. Equal to or above 0 °C: not met.

>>> qualitative_label("Nc1n[nH]c2nnc(-c3c(-c4ccccc4)nn4ccccc34)cc12")
"met"
>>> qualitative_label("CCCCc1c(-c2ccc(O)cc2)[nH]c2nccnc12")
"not met"
>>> qualitative_label("Cn1cc(/C=C2/C(=O)Nc3ccc(S(N)(=O)=O)cc32)c2ccccc21")
"not met"
>>> qualitative_label("O=C(O)c1cc(NCc2cc(O)ccc2O)ccc1O")
"not met"

----------
- assayed-system: Serine/threonine-protein kinase pim-3 (Homo sapiens) (UniProt Q86V86)
Use T when the recorded ΔTm is no lower than 4 °C; use F when it is lower.

>>> qualitative_label("CC(=O)O/N=C1/C(=C2/C(=O)Nc3cc(Br)ccc32)Nc2ccccc21")
"F"
>>> qualitative_label("CCOc1cc2ncnc(Nc3cccc(Br)c3)c2cc1OCC")
"F"
>>> qualitative_label("N#CCCc1ccc2c(c1)-c1[nH]c3ccc([N+](=O)[O-])cc3c1CC(=O)N2")
"F"
>>> qualitative_label("O=c1cc(-c2ccc(O)cc2)oc2cc(O)cc(O)c12")
"T"
>>> qualitative_label("CCOc1ccc(/C=C2/SC(=O)N(CCN)C2=O)cc1")
"F"
>>> qualitative_label("CN(c1cccnc1)c1cc2c(Nc3ccc(F)c(Cl)c3)c(C#N)cnc2cn1")
"F"
>>> qualitative_label("COC(=O)[C@]1(O)C[C@@H]2O[C@@]1(C)n1c3ccccc3c3c4c(c5c6ccccc6n2c5c31)C(=O)NC4 (single isomer, unassigned)")
"T"
>>> qualitative_label("COc1cc2ncnc(Nc3ccc(NC(=O)c4ccccc4)cc3)c2cc1OC")
"T"
>>> qualitative_label("N#C/C(=C1/Nc2ccccc2S1)c1ccnc(NCCc2cccnc2)n1")
"T"
>>> qualitative_label("O=c1c(-c2ccc(O)cc2)coc2cc(O)cc(O)c12")
"F"
>>> qualitative_label("CN1CCc2[nH]c(=S)c(C#N)c(-c3cccs3)c2C1")
"T"
>>> qualitative_label("CCN(CC)CCNC(=O)c1c(C)[nH]c(/C=C2\\C(=O)Nc3ccc(F)cc32)c1C")
"T"
>>> qualitative_label("COc1nccc(-c2c(-c3ccc(F)cc3)ncn2[C@H]2CC[C@H](O)CC2)n1")
"F"
>>> qualitative_label("NC1=NC(=O)/C(=C2\\CCNC(=O)c3[nH]c(Br)cc32)N1")
"F"
>>> qualitative_label("Cn1cnc2c(NCc3ccccc3)nc(NCCO)nc21")
"F"
>>> qualitative_label("O=c1c(O)c(-c2ccc(O)c(O)c2)oc2cc(O)cc(O)c12")
"T"
>>> qualitative_label("COc1cc2ncnc(Nc3cccc(O)c3)c2cc1OC")
"F"
>>> qualitative_label("COc1ccc2c(c[n+](C)c3c4cc5c(cc4ccc23)OCO5)c1OC [CHELERYTHRINE CHLORIDE]")
"F"

----------
Readings of ΔTm for the listed compounds
- assayed-system: 3-phosphoinositide-dependent protein kinase 1 (Homo sapiens) (UniProt O15530)
- Sequence (whole entry): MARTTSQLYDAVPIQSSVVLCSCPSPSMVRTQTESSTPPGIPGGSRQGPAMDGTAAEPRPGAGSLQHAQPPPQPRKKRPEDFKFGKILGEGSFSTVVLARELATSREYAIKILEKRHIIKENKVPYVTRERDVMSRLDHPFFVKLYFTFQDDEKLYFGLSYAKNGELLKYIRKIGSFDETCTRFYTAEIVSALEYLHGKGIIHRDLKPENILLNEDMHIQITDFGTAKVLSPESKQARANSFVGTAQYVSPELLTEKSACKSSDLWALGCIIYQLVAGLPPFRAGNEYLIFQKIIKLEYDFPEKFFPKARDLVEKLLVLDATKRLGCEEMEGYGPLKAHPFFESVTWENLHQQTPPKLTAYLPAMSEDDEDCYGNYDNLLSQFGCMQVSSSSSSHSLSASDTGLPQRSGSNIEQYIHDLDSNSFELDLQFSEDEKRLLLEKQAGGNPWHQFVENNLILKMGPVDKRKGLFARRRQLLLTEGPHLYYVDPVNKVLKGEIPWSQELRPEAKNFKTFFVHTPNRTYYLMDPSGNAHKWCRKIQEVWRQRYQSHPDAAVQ
experimental-readout: ΔTm

>>> readout_value("CC(C)N(CCO)c1nc(Nc2cccc(Cl)c2)c2ncn(C(C)C)c2n1")
"-0.8 °C"
>>> readout_value("CC[C@H](CO)Nc1nc(NCc2ccccc2)c2ncn(C(C)C)c2n1")
"0.2 °C"
>>> readout_value("COc1ccc(CNC(=O)Nc2ncc([N+](=O)[O-])s2)cc1")
"-0.3 °C"
>>> readout_value("CC(=O)O/N=C1/C(=C2/C(=O)Nc3cc(Br)ccc32)Nc2ccccc21")
"0.8 °C"
>>> readout_value("CC(C)c1nn(-c2c(Cl)cccc2Cl)c2nc(Cc3ccc(OCCO)cc3)[nH]c(=O)c12")
"0 °C"
>>> readout_value("CCN(CC)CCNC(=O)c1c(C)[nH]c(/C=C2\\C(=O)Nc3ccc(Cl)cc32)c1C")
"-0.7 °C"
>>> readout_value("O=C1Nc2ccccc2/C1=C\\c1ccc[nH]1")
"0.9 °C"
>>> readout_value("Cn1cc(C2=C(c3cn(CCCN)c4ccccc34)C(=O)NC2=O)c2ccccc21")
"-0.1 °C"
>>> readout_value("CN(C)CCCn1cc(C2=C(c3c[nH]c4ccccc34)C(=O)NC2=O)c2ccccc21")
"-0.2 °C"
>>> readout_value("Cc1nc(N)sc1-c1ccnc(Nc2cccc([N+](=O)[O-])c2)n1")
"1.9 °C"
>>> readout_value("NC(=O)c1ccc(-c2nc(-c3ccc4c(c3)OCCO4)c(-c3ccccn3)[nH]2)cc1")
"-0.1 °C"
>>> readout_value("CN(C)C[C@@H]1CCn2cc(c3ccccc32)C2=C(C(=O)NC2=O)c2cn(c3ccccc23)CCO1")
"0.2 °C"
>>> readout_value("CN1CCc2[nH]c(=S)c(C#N)c(-c3cccs3)c2C1")
"1.5 °C"
>>> readout_value("CCN1/C(=C/C(C)=O)Sc2ccc(OC)cc21")
"0.2 °C"
>>> readout_value("COC(=O)[C@]1(O)C[C@@H]2O[C@@]1(C)n1c3ccccc3c3c4c(c5c6ccccc6n2c5c31)C(=O)NC4 (single isomer, unassigned)")
"-0.4 °C"
>>> readout_value("Cc1nc(Nc2ncc(C(=O)Nc3c(C)cccc3Cl)s2)cc(N2CCN(CCO)CC2)n1")
"6.8 °C"
>>> readout_value("Oc1cccc(-c2nc(N3CCOCC3)c3oc4ncccc4c3n2)c1")
"0.1 °C"
